# tgt: Sodium-dependent dopamine transporter (Rattus norvegicus, UniProt P23977)
# Sequence (P23977 whole entry): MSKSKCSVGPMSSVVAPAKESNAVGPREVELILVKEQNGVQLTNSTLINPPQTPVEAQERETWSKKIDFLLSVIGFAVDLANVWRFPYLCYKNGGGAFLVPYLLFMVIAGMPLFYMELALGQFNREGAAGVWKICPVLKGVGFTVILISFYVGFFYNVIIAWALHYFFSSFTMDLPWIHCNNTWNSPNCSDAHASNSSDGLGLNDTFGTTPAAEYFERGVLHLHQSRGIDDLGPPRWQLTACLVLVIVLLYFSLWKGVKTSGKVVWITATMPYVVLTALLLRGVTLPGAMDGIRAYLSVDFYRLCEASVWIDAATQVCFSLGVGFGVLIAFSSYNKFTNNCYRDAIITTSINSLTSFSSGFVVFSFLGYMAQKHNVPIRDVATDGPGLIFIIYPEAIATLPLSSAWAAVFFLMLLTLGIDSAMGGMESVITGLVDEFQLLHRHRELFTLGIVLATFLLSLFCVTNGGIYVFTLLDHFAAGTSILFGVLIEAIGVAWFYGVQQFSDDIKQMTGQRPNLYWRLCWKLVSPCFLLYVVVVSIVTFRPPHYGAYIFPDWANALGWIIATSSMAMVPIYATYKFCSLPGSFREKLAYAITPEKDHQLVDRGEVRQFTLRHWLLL
# assay summary: Inhibition of [3H]DA uptake by dopamine transporter of rat striata synaptosomes
Each entry below carries its reported pKi.
Answer as the number alone; pKi is minus log10 of concentration in mol/L.

// below: answered compounds
C=CCc1ccc([C@H]2CCN(C)C[C@H]2C(=O)OC)cc1 ... 6.02
COC(=O)[C@@H]1CN(C)CC[C@@H]1c1ccc2ccccc2c1 ... 7.68
C#Cc1ccc([C@H]2CCN(C)C[C@H]2C(=O)OC)cc1 ... 6.73
COC(=O)[C@@H]1CN(C)CC[C@@H]1c1ccc(-c2ccccc2)cc1 ... 6.76
COC(=O)[C@@H]1CN(C)CC[C@H]1c1ccc2ccccc2c1 ... 7.06
COC(=O)[C@@H]1CNCC[C@H]1c1ccc2ccccc2c1 ... 7.05

Lookup result for COC(=O)[C@@H]1CN(C)CC[C@@H]1c1ccc(Cl)cc1 ; measured pKi: 7.16

Lookup result for COC(=O)[C@H]1CN(C)CC[C@@H]1c1ccc2ccccc2c1 ; measured pKi: 6.02

Lookup result for COC(=O)[C@H]1CN(C)CC[C@H]1c1ccc2ccccc2c1 ; measured pKi: 6.57

Lookup result for COC(=O)[C@@H]1CN(C)CC[C@@H]1c1cccc2ccccc12 ; measured pKi: 6.52

----------
# tgt: Monoamine transporters; Norepinephrine & serotonin (Rattus norvegicus) (UniProt P31652+Q9WTR4)
# assay summary: Relative affinity for norepinephrine over 5-HT transporters
# Type: protein assay
Each entry below carries its reported Ratio.

// below: answered molecules
COC(=O)[C@@H]1CNCC[C@H]1c1ccc2ccccc2c1 ... 8.6
CCc1ccc([C@H]2CCN(C)CC2C(=O)OC)cc1 (stereo not given in full) ... > 4
COC(=O)[C@@H]1CN(C)CC[C@H]1c1ccc2ccccc2c1 ... 0.14

Lookup result for COC(=O)[C@H]1CN(C)CC[C@H]1c1ccc2ccccc2c1 ; measured Ratio: 3.2

Lookup result for COC(=O)[C@H]1CN(C)CC[C@@H]1c1ccc2ccccc2c1 ; measured Ratio: 5.7

Lookup result for COC(=O)[C@@H]1CN(C)CC[C@@H]1c1ccc(-c2ccccc2)cc1 ; measured Ratio: 3.3

Lookup result for COC(=O)[C@@H]1CN(C)CC[C@@H]1c1ccc(Cl)cc1 ; measured Ratio: 0.23

Lookup result for C#Cc1ccc([C@H]2CCN(C)C[C@H]2C(=O)OC)cc1 ; measured Ratio: 2.1

Lookup result for COC(=O)[C@@H]1CN(C)CC[C@@H]1c1cccc2ccccc12 ; measured Ratio: 2.8

Lookup result for C=CCc1ccc([C@H]2CCN(C)C[C@H]2C(=O)OC)cc1 ; measured Ratio: > 3.5

----------
# tgt: Monoamine transporters; serotonin & dopamine (Rattus norvegicus) (UniProt P31652+P23977)
# Sequence (P23977 whole entry, looked up): as the sequence (P23977 whole entry) above
# Sequence (P31652 whole entry, looked up): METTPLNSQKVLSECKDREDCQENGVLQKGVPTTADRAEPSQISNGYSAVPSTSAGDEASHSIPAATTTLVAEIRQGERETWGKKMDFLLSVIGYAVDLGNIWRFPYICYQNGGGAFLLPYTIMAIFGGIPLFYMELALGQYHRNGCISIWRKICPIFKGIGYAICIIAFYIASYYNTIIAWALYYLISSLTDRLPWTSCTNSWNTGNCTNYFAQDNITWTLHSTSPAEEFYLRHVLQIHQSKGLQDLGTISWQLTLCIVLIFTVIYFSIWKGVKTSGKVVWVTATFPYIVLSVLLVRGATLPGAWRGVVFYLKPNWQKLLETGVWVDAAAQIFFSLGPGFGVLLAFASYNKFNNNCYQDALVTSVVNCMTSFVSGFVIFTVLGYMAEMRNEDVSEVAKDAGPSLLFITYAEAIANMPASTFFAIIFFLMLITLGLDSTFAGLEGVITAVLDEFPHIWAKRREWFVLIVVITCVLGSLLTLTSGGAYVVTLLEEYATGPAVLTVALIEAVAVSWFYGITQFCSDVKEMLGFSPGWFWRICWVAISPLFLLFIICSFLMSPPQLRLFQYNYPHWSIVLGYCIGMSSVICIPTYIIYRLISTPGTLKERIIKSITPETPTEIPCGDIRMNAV
# assay summary: Relative affinity for dopamine over 5-HT transporters
# Type: protein assay
Each entry below carries its reported Ratio.
Lab note: write the figure by itself, no unit.

// below: answered compounds
COC(=O)[C@@H]1CNCC[C@H]1c1ccc2ccccc2c1 ... 26
COC(=O)[C@@H]1CN(C)CC[C@@H]1c1ccc(Cl)cc1 ... 0.18

Query COC(=O)[C@@H]1CN(C)CC[C@@H]1c1ccc(-c2ccccc2)cc1 on Monoamine transporters; serotonin & dopamine (Rattus norvegicus) (UniProt P31652+P23977); Ratio returned: 2.8

Query C#Cc1ccc([C@H]2CCN(C)C[C@H]2C(=O)OC)cc1 on Monoamine transporters; serotonin & dopamine (Rattus norvegicus) (UniProt P31652+P23977); Ratio returned: 1.1

Query COC(=O)[C@H]1CN(C)CC[C@H]1c1ccc2ccccc2c1 on Monoamine transporters; serotonin & dopamine (Rattus norvegicus) (UniProt P31652+P23977); Ratio returned: 23

Query COC(=O)[C@H]1CN(C)CC[C@@H]1c1ccc2ccccc2c1 on Monoamine transporters; serotonin & dopamine (Rattus norvegicus) (UniProt P31652+P23977); Ratio returned: 22.6

----------
# tgt: Sodium-dependent serotonin transporter (Rattus norvegicus, UniProt P31652)
# assay summary: Inhibition of [3H]5-HT uptake by Serotonin transporter of rat midbrain or parietal synaptosomes
# Format: subcellular, Brain
measured attribute: Ki (µM)
Lab book: enter the figure in µM, no units written.

// below: answered compounds
COC(=O)[C@@H]1CNCC[C@H]1c1ccc2ccccc2c1 ... 0.0035
COC(=O)[C@H]1CN(C)CC[C@@H]1c1ccc2ccccc2c1 ... 0.042
COC(=O)[C@@H]1CN(C)CC[C@@H]1c1cccc2ccccc12 ... 0.101

Query CCc1ccc([C@H]2CCN(C)CC2C(=O)OC)cc1 (some centres not stated) on Sodium-dependent serotonin transporter (Rattus norvegicus, UniProt P31652); Ki returned: 0.255

Query COC(=O)[C@@H]1CN(C)CC[C@@H]1c1ccc2ccccc2c1 on Sodium-dependent serotonin transporter (Rattus norvegicus, UniProt P31652); Ki returned: 0.0076

----------
# Organism: Rattus norvegicus
# assay summary: Compound was evaluated for its ability to antagonizing serotonin high affinity uptake was determined using [3H]5-HT on synaptosomes prepared from rat midbrain or parietal cortices.
# Type: functional
# condition description: Brain
Doc: threshold 50 nM (exclusive). Items with IC50 beneath it return Condition met; others return Condition not met.

C=Cc1ccc([C@H]2CCN(C)C[C@H]2C(=O)OC)cc1 ... Condition not met
COC(=O)[C@H]1CN(C)CC[C@H]1c1ccc2ccccc2c1 ... Condition met
COC(=O)[C@@H]1CN(C)CC[C@@H]1c1ccc2ccccc2c1 ... Condition met

// query Dear reviewer, please state whether COC(=O)[C@@H]1CN(C)CC[C@@H]1c1ccc(-c2ccccc2)cc1 has IC50 strictly beneath 50 nM.
// result Condition not met

// query Dear reviewer, please state whether COC(=O)[C@H]1CN(C)CC[C@@H]1c1ccc2ccccc2c1 has IC50 strictly beneath 50 nM.
// result Condition met

// query Dear reviewer, please state whether COC(=O)[C@@H]1CN(C)CC[C@@H]1c1ccc(Cl)cc1 has IC50 strictly beneath 50 nM.
// result Condition not met

// query Dear reviewer, please state whether COC(=O)[C@@H]1CN(C)CC[C@@H]1c1cccc2ccccc12 has IC50 strictly beneath 50 nM.
// result Condition not met

// query Dear reviewer, please state whether COC(=O)[C@@H]1CN(C)CC[C@H]1c1ccc2ccccc2c1 has IC50 strictly beneath 50 nM.
// result Condition not met

// query Dear reviewer, please state whether C=CCc1ccc([C@H]2CCN(C)C[C@H]2C(=O)OC)cc1 has IC50 strictly beneath 50 nM.
// result Condition not met

// query Dear reviewer, please state whether C#Cc1ccc([C@H]2CCN(C)C[C@H]2C(=O)OC)cc1 has IC50 strictly beneath 50 nM.
// result Condition not met

// query Dear reviewer, please state whether CCc1ccc([C@H]2CCN(C)CC2C(=O)OC)cc1 (stereo partly drawn) has IC50 strictly beneath 50 nM.
// result Condition not met

// query Dear reviewer, please state whether COC(=O)[C@@H]1CNCC[C@H]1c1ccc2ccccc2c1 has IC50 strictly beneath 50 nM.
// result Condition met

// query Dear reviewer, please state whether CNCCC(Oc1ccc(C(F)(F)F)cc1)c1ccccc1 (stereo not drawn) has IC50 strictly beneath 50 nM.
// result Condition met

----------
# tgt: Norepinephrine transporter (Rattus norvegicus, UniProt Q9WTR4)
# Sequence (Q9WTR4 whole entry): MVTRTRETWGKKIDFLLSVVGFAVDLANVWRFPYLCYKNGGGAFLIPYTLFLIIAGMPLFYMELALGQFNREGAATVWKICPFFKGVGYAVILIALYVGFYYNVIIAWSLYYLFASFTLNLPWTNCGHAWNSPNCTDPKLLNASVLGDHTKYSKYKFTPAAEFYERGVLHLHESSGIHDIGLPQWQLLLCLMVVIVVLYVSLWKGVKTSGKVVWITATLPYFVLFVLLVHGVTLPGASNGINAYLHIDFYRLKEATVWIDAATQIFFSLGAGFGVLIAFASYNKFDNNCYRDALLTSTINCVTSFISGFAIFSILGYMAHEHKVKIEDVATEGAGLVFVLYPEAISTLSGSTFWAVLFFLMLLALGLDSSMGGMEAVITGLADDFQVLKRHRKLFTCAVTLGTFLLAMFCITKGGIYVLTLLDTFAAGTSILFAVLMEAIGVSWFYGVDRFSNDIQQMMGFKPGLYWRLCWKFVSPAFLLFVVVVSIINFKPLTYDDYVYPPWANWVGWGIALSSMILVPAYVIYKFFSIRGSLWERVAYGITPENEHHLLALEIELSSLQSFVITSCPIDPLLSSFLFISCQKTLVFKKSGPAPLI
# assay summary: Inhibition of [3H]NE uptake by Norepinephrine transporter of rat occipital cortex synaptosomes
measured attribute: pKi
Answer as the number alone; pKi is minus log10 of concentration in mol/L.

// below: answered molecules
COC(=O)[C@@H]1CN(C)CC[C@@H]1c1ccc(Cl)cc1 ... 7.06
COC(=O)[C@@H]1CN(C)CC[C@@H]1c1cccc2ccccc12 ... 6.55
COC(=O)[C@H]1CN(C)CC[C@@H]1c1ccc2ccccc2c1 ... 6.62
COC(=O)[C@@H]1CNCC[C@H]1c1ccc2ccccc2c1 ... 7.52
COC(=O)[C@@H]1CN(C)CC[C@H]1c1ccc2ccccc2c1 ... 7.57

Query C=Cc1ccc([C@H]2CCN(C)C[C@H]2C(=O)OC)cc1 on Norepinephrine transporter (Rattus norvegicus, UniProt Q9WTR4); pKi returned: 6.76

----------
# tgt: Norepinephrine transporter (Rattus norvegicus, UniProt Q9WTR4)
# assay summary: Inhibition of [3H]NE uptake by Norepinephrine transporter of rat occipital cortex synaptosomes
measured attribute: pKi
Answer as the number alone; pKi is minus log10 of concentration in mol/L.

COC(=O)[C@@H]1CN(C)CC[C@@H]1c1ccc(-c2ccccc2)cc1 ... 6.69
COC(=O)[C@@H]1CN(C)CC[C@@H]1c1ccc2ccccc2c1 ... 7.47

Lookup result for C#Cc1ccc([C@H]2CCN(C)C[C@H]2C(=O)OC)cc1 ; measured pKi: 6.44

Lookup result for COC(=O)[C@H]1CN(C)CC[C@H]1c1ccc2ccccc2c1 ; measured pKi: 7.42

----------
# tgt: Monoamine transporters; serotonin & dopamine (Rattus norvegicus) (UniProt P31652+P23977)
# assay summary: Relative affinity for dopamine over 5-HT transporters
# Format: protein assay
Each entry below carries its reported Ratio.
Lab note: write the figure by itself, no unit.

// below: answered compounds
COC(=O)[C@@H]1CN(C)CC[C@@H]1c1cccc2ccccc12 ... 3
COC(=O)[C@@H]1CN(C)CC[C@H]1c1ccc2ccccc2c1 ... 0.45

Lookup result for C=CCc1ccc([C@H]2CCN(C)C[C@H]2C(=O)OC)cc1 ; measured Ratio: 3.1
